target: WT CXCR3 (Homo sapiens); construct: expressed in transfected cells; host or cells: murine pre-B cell line L1.2, transient transfection by electroporation; experiment: Whole-cell 125I-CXCL11 binding assay, L1.2 transfectants; details: WT CXCR3 transfectants (Figure 1); read-out: IC50 for displacement of 125I-CXCL11
Sequence (P49682 whole entry): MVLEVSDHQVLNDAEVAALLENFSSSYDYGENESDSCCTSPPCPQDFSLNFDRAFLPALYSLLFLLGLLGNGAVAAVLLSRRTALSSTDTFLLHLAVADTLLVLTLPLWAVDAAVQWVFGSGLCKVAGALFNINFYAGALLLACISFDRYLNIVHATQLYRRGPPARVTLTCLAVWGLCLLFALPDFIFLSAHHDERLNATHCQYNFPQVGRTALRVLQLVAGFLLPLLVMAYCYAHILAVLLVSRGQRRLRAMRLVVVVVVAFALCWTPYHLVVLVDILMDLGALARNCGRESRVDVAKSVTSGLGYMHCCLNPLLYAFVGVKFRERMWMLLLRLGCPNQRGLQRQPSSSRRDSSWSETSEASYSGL
READOUT: pIC50
The read-out pIC50 is expressed as -log10 of concentration in moles per litre.

**Q:** Endpoint output: pIC50 of Cc1ccc(-c2ccc3c(c2)C=C(C(=O)Nc2ccc(C[N+](C)(C)C4CCOCC4)cc2)CCC3)cc1.[Cl-] . Value?
**A:** 4.81
